B1: DUSP5 (parent)
chain: YSEYPECCVDVKPISQEKIESERA

Variants of: B1
assay: protein stability index of a GFP-peptide fusion (GPS, HEK-293T) (PSI 1-6); higher = more stable;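 further: lentivirally expressed fusions sorted by FACS into six bins by GFP to DsRed ratio, PSI derived from sequencing read proportions per bin multiplied by bin number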
assay.setup: c terminus: a fixed tail appended
endpoint.label: protein stability index

{"columns": ["changes", "number"],
 "data": [
  ["S15Y", 4.18],
  ["E6D", 4.55],
  ["K18M", 4.3],
  ["E3C", 3.53],
  ["S2Y", 4.93],
  ["S2D", 5.29],
  ["D10R", 2.84],
  ["S15F", 3.64],
  ["D10K", 3.71],
  ["P5Q", 5.33],
  ["E17N", 3.61],
  ["Y1P", 4.94],
  ["S21H", 4.58],
  ["V9K", 4.53],
  ["E3P", 4.56],
  ["V9A", 4.26],
  ["S21F", 4.11],
  ["I19V", 3.31],
  ["Y4I", 5.75],
  ["P13K", 4.12],
  ["R23G", 4.42],
  ["Q16P", 4.38],
  ["V11K", 4.17],
  ["Y4S", 5.19],
  ["C7I", 3.37],
  ["E6N", 3.74],
  ["P5H", 3.39],
  ["C8M", 4.59],
  ["E22L", 2.27],
  ["Y4K", 5.62],
  ["I14P", 4.45],
  ["E3S", 3.95],
  ["E20P", 3.78],
  ["I19T", 4.55],
  ["E20M", 2.8],
  ["C7L", 3.75],
  ["C7T", 4.81],
  ["Y4T", 5.77],
  ["V11F", 3.53],
  ["P13N", 3.96],
  ["C8L", 4.07],
  ["E6M", 1.63],
  ["C8Q", 4.58],
  ["S15R", 4.09],
  ["Y1K", 5.36],
  ["K18S", 3.98]
]}

meta.source: the supplement of paper PMC10567573
